# EXPERIMENTAL_SYSTEM: Recombinant human mPGES-1 (Homo sapiens, UniProt O14684)
# Construct: made in house; host or cells: CHO cells (crude microsomal fractions)
# EXPERIMENT: In-vitro screening of mPGES-1 inhibitors (inhibition of PGE2 formation from PGH2, HTRF detection)
# Assay type: biochemical
# TEST_PARAMETERS: 1 μM test compound; mPGES-1 enzyme, crude microsomal fractions; read-out: Percentage inhibition at 1 μM
PROPERTY_LABEL: inhibition at 1 µM (%)

Examples with their reported inhibition at 1 µM follow.
RECORD_SMILES	PROPERTY_LABEL	OBSERVED_RESULT
O=c1[nH]c(-c2c(F)cccc2Cl)nn1-c1ccc(C#Cc2ccc(F)nc2)cc1	inhibition at 1 µM	91.8
COc1cc(-n2nc(-c3c(Cl)cccc3Cl)[nH]c2=O)ccc1-c1nc(C(C)C)no1	inhibition at 1 µM	95.3

(P) COc1cc(-n2nc(-c3c(F)cccc3Cl)[nH]c2=O)ccc1C(=O)Nc1ccc(F)c(C(F)(F)F)c1
(Q) CCn1c(-c2c(Cl)cccc2Cl)nn(-c2ccc(C(=O)Nc3cccc(C(F)(F)F)c3)c(OC)c2)c1=O
Prompt line: // compare measured inhibition at 1 µM, left P , right Q , return larger Please respond with the label that marks your chosen entry.
Response line: P
(P: 89.4%, Q: 0.55%)

----------
# EXPERIMENTAL_SYSTEM: Recombinant human mPGES-1 (Homo sapiens)
# Construct: made in house; host or cells: CHO cells (crude microsomal fractions)
# EXPERIMENT: In-vitro screening of mPGES-1 inhibitors (inhibition of PGE2 formation from PGH2, HTRF detection)
# Format: biochemical
# TEST_PARAMETERS: 10 μM test compound; mPGES-1 enzyme, crude microsomal fractions; read-out: Percentage inhibition at 10 μM
PROPERTY_LABEL: inhibition at 10 µM (%)

COMPOUND	VALUE_UNITS	inhibition at 10 µM
COc1cc(-c2nn(-c3c(Cl)cccc3Cl)c(=O)[nH]2)ccc1C(=O)Nc1ccc(C)cc1Cl [Example-179]	%	95.2
CC(C)(C)C#Cc1ccc(-c2nn(-c3c(Cl)ccc(CNC(=O)C(C)(C)C)c3F)c(=O)[nH]2)cc1 [Example-111]	%	96.2
CC(C)(C)C(=O)NCc1ccc(Cl)c(-c2nn(-c3ccc(C#CC4CC4)cc3F)c(=O)[nH]2)c1 [Example-181]	%	94.3
O=c1[nH]c(-c2c(F)cccc2Cl)nn1-c1ccc(C#Cc2ccc(C(F)(F)F)cc2Cl)cc1 [Example-7]	%	95.2

----------
# EXPERIMENTAL_SYSTEM: Recombinant human mPGES-1 (Homo sapiens)
# Sequence (O14684 1-152): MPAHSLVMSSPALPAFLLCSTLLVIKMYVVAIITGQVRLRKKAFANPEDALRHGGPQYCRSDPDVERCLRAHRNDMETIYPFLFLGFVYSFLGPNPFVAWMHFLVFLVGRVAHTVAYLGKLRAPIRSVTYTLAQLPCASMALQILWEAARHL
# EXPERIMENT: In-vitro screening of mPGES-1 inhibitors (inhibition of PGE2 formation from PGH2, HTRF detection)
# TEST_PARAMETERS: mPGES-1 enzyme; class symbols
PROPERTY_LABEL: IC50

COMPOUND	EXPERIMENTAL_SYSTEM	IC50
O=C(Nc1cccc(C(F)(F)F)c1)c1ccc(-n2nc(-c3c(F)cccc3Cl)[nH]c2=O)cc1 [Example-31]	Recombinant human mPGES-1 (Homo sapiens)	50 to 100 nM
CC(C)(C)C(=O)NCc1ccc(Cl)c(-c2nn(-c3ccc(C(F)(F)F)c(F)c3)c(=O)[nH]2)c1F [Example-173]	Recombinant human mPGES-1 (Homo sapiens)	< 50 nM
COc1cc(-n2nc(-c3c(F)cccc3Cl)[nH]c2=O)ccc1C(=O)Nc1nc2ccc(F)cc2s1 [Example-45]	Recombinant human mPGES-1 (Homo sapiens)	< 50 nM

Prompt line: IC50 lookup needed for CC(C)(CO)C(=O)NCc1ccc(Cl)c(-c2nn(-c3ccc(C(F)(F)F)cc3)c(=O)[nH]2)c1 [Example-115] , thanks.
Response line: < 50 nM

----------
# EXPERIMENTAL_SYSTEM: Recombinant human mPGES-1 (Homo sapiens)
# Construct: made in house; host or cells: CHO cells (crude microsomal fractions)
# EXPERIMENT: In-vitro screening of mPGES-1 inhibitors (inhibition of PGE2 formation from PGH2, HTRF detection)
# Assay type: biochemical
# TEST_PARAMETERS: 1 μM test compound; mPGES-1 enzyme, crude microsomal fractions; read-out: Percentage inhibition at 1 μM
PROPERTY_LABEL: inhibition at 1 µM (%)

Consider the worked cases shown below.
MOLECULE	EXPERIMENTAL_SYSTEM	inhibition at 1 µM [%]
CC(C)C(=O)NCc1ccc(Cl)c(-n2nc(-c3ccc(C#CC4CC4)c(F)c3)[nH]c2=O)c1 [Example-150]	Recombinant human mPGES-1 (Homo sapiens)	98.4
Cc1ccc(-n2nc(-c3cc(CNC(=O)C(C)(C)C)ccc3Cl)[nH]c2=O)cc1C(F)(F)F [Example-158]	Recombinant human mPGES-1 (Homo sapiens)	99
O=C(NCc1ccc(Cl)c(-c2nn(-c3ccc(C(F)(F)F)cc3)c(=O)[nH]2)c1)C1CCCC1 [Example-185]	Recombinant human mPGES-1 (Homo sapiens)	96.1
O=c1[nH]c(-c2cc(S(=O)(=O)NC3CC3)ccc2Cl)nn1-c1ccc(Cl)cc1 [Example-97]	Recombinant human mPGES-1 (Homo sapiens)	20.2
CC(C)C(=O)NCc1cnc(C(F)F)c(-c2nn(-c3ccc(C(F)(F)F)cc3)c(=O)[nH]2)c1 [Example-187]	Recombinant human mPGES-1 (Homo sapiens)	98.6

(P) Cc1csc(-c2ccc(-n3nc(-c4c(F)cccc4-c4cc(C)cs4)[nH]c3=O)cc2)c1 [Example-4]
(Q) O=C(Nc1cc(C(F)(F)F)ccc1F)c1ccc(-n2nc(-c3c(F)cccc3Cl)[nH]c2=O)cc1 [Example-34]
Prompt line: Select the item whose inhibition at 1 µM value is smaller, choosing between P and Q . # respond with the chosen item's label
Response line: P

----------
Catalogue of pIC50 readings, one per entry.
# EXPERIMENTAL_SYSTEM: Recombinant human mPGES-1 (Homo sapiens)
# EXPERIMENT: In-vitro screening of mPGES-1 inhibitors (inhibition of PGE2 formation from PGH2, HTRF detection)
# TEST_PARAMETERS: mPGES-1 enzyme; class symbols
pIC50: −log10 of the molar value.

Guide cases for pIC50, answers given:
RECORD_SMILES	pIC50
CC(C)(C)C(=O)NCc1ccc(Cl)c(-c2nn(-c3ccc(C#N)cc3)c(=O)[nH]2)c1F	> 7.30
CC(C)(C)C(=O)NCc1ccc(Cl)c(-c2nn(-c3ccc(Cl)cc3)c(=O)[nH]2)c1F	> 7.30
COc1cc(-n2nc(-c3c(C)cccc3Cl)[nH]c2=O)ccc1C(=O)Nc1cccc(C(F)(F)F)c1	> 7.30
CC(C)S(=O)(=O)NCc1ccc(Cl)c(-c2nn(-c3ccc(C(F)(F)F)cc3)c(=O)[nH]2)c1	> 7.30
COc1cc(-n2nc(-c3c(C)cccc3Cl)[nH]c2=O)ccc1C(=O)Nc1cccc(C(F)F)c1	7.00 to 7.30

Prompt line: pIC50 for COc1cc(-c2nn(-c3c(Cl)cccc3Cl)c(=O)[nH]2)ccc1C#Cc1cccc(Cl)c1F ?
Response line: 7.00 to 7.30

Prompt line: Look up pIC50 for this compound: COc1cc(-n2nc(-c3cc(CNC(=O)C4CC4)ccc3Cl)[nH]c2=O)ccc1NC(=O)C1CC1
Response line: < 7.00

----------
# EXPERIMENTAL_SYSTEM: Recombinant human mPGES-1 (Homo sapiens, UniProt O14684)
# Construct: made in house; host or cells: CHO cells (crude microsomal fractions)
# EXPERIMENT: In-vitro screening of mPGES-1 inhibitors (inhibition of PGE2 formation from PGH2, HTRF detection)
# Format: biochemical
# TEST_PARAMETERS: 1 μM test compound; mPGES-1 enzyme, crude microsomal fractions; read-out: Percentage inhibition at 1 μM
PROPERTY_LABEL: inhibition at 1 µM (%)

COMPOUND	EXPERIMENTAL_SYSTEM	inhibition at 1 µM / %
CC(C)(C)C(=O)NCc1ccc(Cl)c(-n2nc(-c3ccc(F)c(C(F)(F)F)c3)[nH]c2=O)c1 [Example-148]	Recombinant human mPGES-1 (Homo sapiens, UniProt O14684)	98.9
CC(C)(C)C(=O)NCc1ccc(Cl)c(-c2nn(-c3ccc(C(F)(F)F)cc3F)c(=O)[nH]2)c1 [Example-163]	Recombinant human mPGES-1 (Homo sapiens, UniProt O14684)	91.8

(I) COc1cc(-c2nn(-c3c(Cl)cccc3Cl)c(=O)[nH]2)ccc1C#Cc1ccc(C(F)(F)F)cc1Cl [Example-75]
(II) COc1cc(-n2nc(-c3c(F)cccc3Cl)[nH]c2=O)ccc1C(=O)Nc1nc2ccccc2[nH]1 [Example-46]
Prompt line: From the recorded data, which exceeds the other in inhibition at 1 µM: I or II ? # respond with the chosen item's label
Response line: I
(I: 99.1%, II: 59.8%)
